From: patent US20130330324A1

Molecular target: T1, Mu HER3 (CD33-[Murine HER3, residues 20-643]-TAG) (mouse, UniProt Q61526 20-643)
T1 construct: range 20-643; CD33 leader left out as signal; also called mu HER3-Tag; not shown: C-terminal TAG (e.g. FLAG TAG)
Experiment: solution equilibrium titration (SET), IgG
Below, each entry is listed with its recorded pKd.
Reminder that pKd is minus the log10 of a molar concentration.

MOR10703 (antibody, human IgG1, kappa, V domains shown, tested as IgG) VH: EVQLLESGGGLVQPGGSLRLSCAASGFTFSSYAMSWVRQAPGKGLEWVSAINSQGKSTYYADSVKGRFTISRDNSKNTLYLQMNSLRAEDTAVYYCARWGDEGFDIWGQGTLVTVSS VL: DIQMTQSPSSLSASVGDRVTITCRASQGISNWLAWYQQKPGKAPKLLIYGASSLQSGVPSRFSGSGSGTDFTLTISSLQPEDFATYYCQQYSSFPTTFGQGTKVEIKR
10.70
MOR09974 (antibody, human IgG1, kappa, V domains shown, tested as IgG) VH: QVQLVESGGGLVQPGGSLRLSCAASGFTFSSYAMSWVRQAPGKGLEWVSVINPSGNFTNYADSVKGRFTISRDNSKNTLYLQMNSLRAEDTAVYYCARWGDEGFDIWGQGTLVTVSS VL: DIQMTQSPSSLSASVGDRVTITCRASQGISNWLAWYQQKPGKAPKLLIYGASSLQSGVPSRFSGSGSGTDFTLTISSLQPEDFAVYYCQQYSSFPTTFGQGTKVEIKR
9.92

Moving on to the next binder.
What value of measured pKd is listed for MOR10702 (antibody, human IgG1, kappa, V domains shown, tested as IgG) VH: EVQLLESGGGLVQPGGSLRLSCAASGFTFSSYAMSWVRQAPGKGLEWVSVISAWGHVKYYADSVKGRFTISRDNSKNTLYLQMNSLRAEDTAVYYCARWGDEGFDIWGQGTLVTVSS VL: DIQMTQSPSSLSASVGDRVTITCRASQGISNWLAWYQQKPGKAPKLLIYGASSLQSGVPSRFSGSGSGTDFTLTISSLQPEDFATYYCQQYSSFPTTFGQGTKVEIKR ?
11.30
